- tested-on: human sphingosine-1-phosphate receptor 1 (S1P1) (Homo sapiens (Human), UniProt P21453)
- Sequence (P21453 whole entry, looked up): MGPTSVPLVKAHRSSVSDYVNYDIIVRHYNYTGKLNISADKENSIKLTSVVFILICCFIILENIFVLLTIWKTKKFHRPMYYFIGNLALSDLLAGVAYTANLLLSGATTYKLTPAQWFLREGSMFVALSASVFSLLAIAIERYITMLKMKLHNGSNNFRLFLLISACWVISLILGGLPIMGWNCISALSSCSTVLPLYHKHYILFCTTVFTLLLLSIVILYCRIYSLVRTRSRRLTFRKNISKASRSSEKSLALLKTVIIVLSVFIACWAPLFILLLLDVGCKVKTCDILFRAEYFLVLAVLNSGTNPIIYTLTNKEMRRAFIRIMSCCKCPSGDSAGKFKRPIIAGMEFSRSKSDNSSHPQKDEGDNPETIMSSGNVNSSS
- assay-summary: Inhibition of cAMP production (HTRF cAMP HiRange), S1P1 CHO-K1 cells
- Assay type: cell-based
- test-settings: inhibition of cAMP production, S1P1 CHO-K1 cells
This section presents compounds with their documented hS1P1 cAMP pEC50 values.
property-label: hS1P1 cAMP pEC50

> print(dat)
                                    compound    property.label  obs.value
 1  CCC1(CC)C/C(=N\O)c2cc(-c3nc(-c4cccnc4)no3)ccc2O1 [Compound 431]  hS1P1 cAMP pEC50       <6.5
 2  COc1ccccc1-c1nnc(-c2ccc3c(c2)CCC(=O)N3)o1 [Compound 341]  hS1P1 cAMP pEC50       <6.5
 3  COc1ccc(-c2coc(-c3ccc4c(c3)nnn4C(C)C)n2)cc1 [Compound 250]  hS1P1 cAMP pEC50       <6.5
 4  N#Cc1cc(-c2nnc(-c3ccc4[nH]c(=O)oc4c3)o2)ccc1NCCF [Compound 487]  hS1P1 cAMP pEC50       <6.5
 5  CC(C)C(c1ccccc1)c1noc(-c2ccc3c(c2)nnn3C(C)C)n1 (centres unmarked) [Compound 56]  hS1P1 cAMP pEC50       <6.5
 6  Cc1cncc(-c2nc(-c3ccc4c(c3)nnn4C(C)C)no2)c1 [Compound 159]  hS1P1 cAMP pEC50       <6.5
 7  O=C1CC2(CCC(F)(F)CC2)Oc2ccc(-c3nc(-c4ccncc4)no3)cc21 [Compound 217]  hS1P1 cAMP pEC50       <6.5
 8  CC(C)n1ccc2cc(-c3nc(-c4ccccc4Br)no3)ccc21 [Compound 322]  hS1P1 cAMP pEC50       >6.5
 9  COc1cc(NC(C)=O)ccc1-c1noc(-c2ccc3nonc3c2)n1 [Compound 533]  hS1P1 cAMP pEC50       <6.5
10  CCC1(CC)CC(=O)c2cc(-c3nnc(-c4ccc5c(c4)nnn5C(C)C)o3)ccc2O1 [Compound 223]  hS1P1 cAMP pEC50       <6.5
11  CCC1(CC)CC(=O)c2cc(-c3nc(-c4ccc5c(c4)CC(=O)N5)no3)ccc2O1 [Compound 416]  hS1P1 cAMP pEC50       >6.5
12  CCc1ncc(-c2noc(-c3ccc4c(c3)nnn4C(C)C)n2)cn1 [Compound 135]  hS1P1 cAMP pEC50       <6.5
13  Cc1ccccc1-c1noc(-c2ccc3c(cnn3C(C)C)c2)n1 [Compound 329]  hS1P1 cAMP pEC50       >6.5
14  CCC1(CC)CC(=O)c2cc(-c3nc(-c4ccnc(NS(C)(=O)=O)c4)no3)ccc2O1 [Compound 556]  hS1P1 cAMP pEC50       >6.5
15  COc1cc(-c2noc(-c3ccc4c(c3)nnn4C3CCCC3)n2)ccn1 [Compound 281]  hS1P1 cAMP pEC50       <6.5
16  CC(C)n1nnc2cc(-c3nc(-c4ccc5nc[nH]c5c4)no3)ccc21 [Compound 511]  hS1P1 cAMP pEC50       >6.5
17  COc1ccc(-c2noc(-c3ccc4c(c3)nnn4C(C)C)n2)c2ccccc12 [Compound 129]  hS1P1 cAMP pEC50       <6.5
18  Cc1ccccc1-c1nc(-c2ccc3c(ccn3C(C)C)c2)no1 [Compound 389]  hS1P1 cAMP pEC50       >6.5
19  COc1ccc(-c2nc(-c3ccc4c(c3)nnn4C(C)(C)CO)no2)c(C)c1 [Compound 610]  hS1P1 cAMP pEC50       <6.5
20  CC(C)n1nnc2cc(-c3nc(-c4cccs4)co3)ccc21 [Compound 459]  hS1P1 cAMP pEC50       <6.5
21  FC(F)(F)c1cccc(-c2nc(-c3ccc4c(c3)nnn4C3CCCC3)no2)c1 [Compound 12]  hS1P1 cAMP pEC50       <6.5
22  CC(C)n1ccc2cc(-c3nc(-c4ccccc4Cl)no3)ccc21 [Compound 320]  hS1P1 cAMP pEC50       >6.5
23  Cc1ccc(-c2noc(-c3ccc4c(c3)nnn4C3CCCC3)n2)s1 [Compound 192]  hS1P1 cAMP pEC50       <6.5
24  Cc1ccccc1-c1noc(-c2ccc3c(c2)nnn3C(C)(C)C)n1 [Compound 59]  hS1P1 cAMP pEC50       >6.5
25  COC(=O)NS(=O)(=O)n1c(=O)oc2cc(-c3nnc(-c4ccccc4OC)o3)ccc21 [Compound 342]  hS1P1 cAMP pEC50       <6.5
26  COc1cccc2oc(-c3ccc4c(c3)nnn4C(C)C)nc12 [Compound 424]  hS1P1 cAMP pEC50       >6.5
27  CC(C)n1ccc2nc(-c3nc(-c4ccccc4Br)cs3)ccc21 [Compound 412]  hS1P1 cAMP pEC50       <6.5
28  Cc1ccncc1-c1noc(-c2ccc3c(c2)nnn3C2CCOCC2)n1 [Compound 439]  hS1P1 cAMP pEC50       <6.5
29  COc1ccc2nc(-c3ccc4c(c3)nnn4C(C)C)oc2c1 [Compound 426]  hS1P1 cAMP pEC50       >6.5
30  Cc1ccccc1-c1noc(-c2ccc3nnn(C(C)C)c3c2)n1 [Compound 308]  hS1P1 cAMP pEC50       <6.5
31  CC(C)n1nnc2cc(-c3nc(-c4cncnc4)no3)ccc21 [Compound 249]  hS1P1 cAMP pEC50       <6.5
32  CC(C)n1nnc2cc(-c3nc4c(Br)cccc4o3)ccc21 [Compound 428]  hS1P1 cAMP pEC50       <6.5
33  O=C1CCc2cc(-c3nc(-c4cccnc4)no3)ccc2N1 [Compound 386]  hS1P1 cAMP pEC50       <6.5
34  CC(C)n1nnc2cc(-c3noc(C4CCCCC4)n3)ccc21 [Compound 127]  hS1P1 cAMP pEC50       <6.5
35  Cc1oc(-c2ccc3c(c2)nnn3C(C)C)nc1-c1ccc(Cl)cc1 [Compound 50]  hS1P1 cAMP pEC50       <6.5
